- TEST PROTOCOL: SAD study pharmacokinetics in healthy subjects
- Assay type: in vivo, human
- ASSAY CONDITIONS: both sexes, human, plasma; single oral dose, SAD cohorts; read-out: median Tmax
MEASUREMENT TYPE: Tmax

Lab book: Tmax of O=C(c1ccc(NS(=O)(=O)c2cccc3cccnc23)cc1)N1CCN(CC2CC2)CC1 noted as 0.75 to 4 h

* * *

- TEST PROTOCOL: SAD study pharmacokinetics in healthy subjects
- Assay type: in vivo, human
- ASSAY CONDITIONS: both sexes, human, plasma, oral, concentrations measured for 72 hours; read-out: mean apparent terminal half-life (t1/2)
MEASUREMENT TYPE: half-life

For reference, reported half-life for O=C(c1ccc(NS(=O)(=O)c2cccc3cccnc23)cc1)N1CCN(CC2CC2)CC1 stands at 17.5 to 20.5 h
